We begin with a simple list: items and their reported Rel. Affinity.
- tested_on: CD33 antigen (human) (UniProt P20138)
- assay_procedure: competition with 125I-labelled native antibody on HEL 92.1.7 cells; IC50 (reference) / IC50 (sample)

Answered examples (5):
{"binder": "Conjugate of 4-(2-Acetylphenoxy)butanoic acid (31) condensed with Calicheamicin N-acetyl gamma dimethyl hydrazide and h-P67.6 (antibody, V domains shown, drug-linker amide on lysine side chains, sites not stated; drug-linker amide on lysine side chains, sites not stated) VH: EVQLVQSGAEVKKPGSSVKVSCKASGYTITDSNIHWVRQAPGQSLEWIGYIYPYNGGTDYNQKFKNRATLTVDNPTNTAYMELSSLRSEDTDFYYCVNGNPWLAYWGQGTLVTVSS VL: DIQLTQSPSTLSASVGDRVTITCRASESLDNYGIRFLTWFQQKPGKAPKLLMYAASNQGSGVPSRFSGSGSGTEFTLTISSLQPDDFATYYCQQTKEVPWSFGQGTKVEVKR", "Rel. Affinity": 0.95}
{"binder": "Conjugate of 4-(2,3-dimethoxy-5-formylphenoxy)butanoic acid (13) condensed with Calicheamicin N-acetyl gamma dimethyl hydrazide and h-P67.6 (antibody, V domains shown, drug-linker amide on lysine side chains, sites not stated; drug-linker amide on lysine side chains, sites not stated) VH: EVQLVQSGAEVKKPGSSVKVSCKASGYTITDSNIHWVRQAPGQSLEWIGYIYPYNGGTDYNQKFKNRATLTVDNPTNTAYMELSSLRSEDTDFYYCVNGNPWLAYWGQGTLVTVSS VL: DIQLTQSPSTLSASVGDRVTITCRASESLDNYGIRFLTWFQQKPGKAPKLLMYAASNQGSGVPSRFSGSGSGTEFTLTISSLQPDDFATYYCQQTKEVPWSFGQGTKVEVKR", "Rel. Affinity": 1.16}
{"binder": "Conjugate of 4-(4-formylphenoxy)butanoic acid (9) condensed with Calicheamicin N-acetyl gamma dimethyl hydrazide and h-P67.6 (antibody, V domains shown, drug-linker amide on lysine side chains, sites not stated; drug-linker amide on lysine side chains, sites not stated) VH: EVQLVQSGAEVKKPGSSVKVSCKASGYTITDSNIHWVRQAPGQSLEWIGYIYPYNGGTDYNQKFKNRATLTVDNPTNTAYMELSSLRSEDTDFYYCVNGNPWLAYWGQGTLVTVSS VL: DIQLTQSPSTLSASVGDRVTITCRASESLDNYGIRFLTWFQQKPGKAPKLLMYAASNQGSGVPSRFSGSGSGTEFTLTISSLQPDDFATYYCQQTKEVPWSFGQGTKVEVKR", "Rel. Affinity": 0.56}
{"binder": "Conjugate of 4-(4-acetyl-2,6-dimethoxyphenoxy)butanoic acid (14) condensed with Calicheamicin N-acetyl gamma dimethyl hydrazide and h-P67.6 (antibody, V domains shown, drug-linker amide on lysine side chains, sites not stated; drug-linker amide on lysine side chains, sites not stated) VH: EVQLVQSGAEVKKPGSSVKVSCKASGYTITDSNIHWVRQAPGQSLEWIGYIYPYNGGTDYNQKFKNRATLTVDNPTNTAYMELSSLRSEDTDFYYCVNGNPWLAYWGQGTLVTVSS VL: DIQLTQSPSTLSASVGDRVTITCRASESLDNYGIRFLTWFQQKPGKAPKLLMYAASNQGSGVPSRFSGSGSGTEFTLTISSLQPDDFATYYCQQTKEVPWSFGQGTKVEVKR", "Rel. Affinity": 1.07}
{"binder": "Conjugate of 4-(4-acetyl-2-methoxyphenoxy)butanoic acid (15) condensed with Calicheamicin N-acetyl gamma dimethyl hydrazide and h-P67.6 (antibody, V domains shown, drug-linker amide on lysine side chains, sites not stated; drug-linker amide on lysine side chains, sites not stated) VH: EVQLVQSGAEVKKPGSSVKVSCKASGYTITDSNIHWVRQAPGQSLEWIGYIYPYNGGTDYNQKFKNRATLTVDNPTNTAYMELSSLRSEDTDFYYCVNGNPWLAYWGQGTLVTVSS VL: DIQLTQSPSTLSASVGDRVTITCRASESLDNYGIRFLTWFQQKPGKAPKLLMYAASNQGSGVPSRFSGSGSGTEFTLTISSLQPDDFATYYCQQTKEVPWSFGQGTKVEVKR", "Rel. Affinity": 0.78}

Req: Tell me the measured Rel. Affinity of Conjugate of 4-formylphenoxyacetic acid (1) condensed with Calicheamicin N-acetyl gamma dimethyl hydrazide and h-P67.6 (antibody, V domains shown, drug-linker amide on lysine side chains, sites not stated; drug-linker amide on lysine side chains, sites not stated) VH: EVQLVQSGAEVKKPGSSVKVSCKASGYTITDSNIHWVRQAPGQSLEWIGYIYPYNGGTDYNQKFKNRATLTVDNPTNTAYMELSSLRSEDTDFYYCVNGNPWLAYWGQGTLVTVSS VL: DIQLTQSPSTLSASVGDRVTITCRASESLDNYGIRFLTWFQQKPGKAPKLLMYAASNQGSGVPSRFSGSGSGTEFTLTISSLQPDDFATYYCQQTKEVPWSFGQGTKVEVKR , please.
Resp: 0.65
